targetOfAssay: CDK2 (Homo sapiens, UniProt P24941)
Construct: endogenous in cells; host or cells: MDA-MB-231
experiment: CDK protein degradation activity (Western blotting), CDK2
Assay type: cell-based
conditionsUsed: MDA-MB-231 cells, 0.1 μM, 16 hours, Western blot
Sorting guide: entries reporting Enzyme degradation CDK2 (% remaining) @ 0.1 μM beneath 50% go in the y pile, the rest go in the n pile.

Is the reported Enzyme degradation CDK2 (% remaining) @ 0.1 μM for Cc1cccc(C(=O)N[C@H]2C[C@H](n3cnc4c(NCC5CCN(CC6CCN(C(=O)CNc7ccc8c(c7)C(=O)N(C7CCC(=O)NC7=O)C8=O)CC6)CC5)ncnc43)C2)n1 (some centres unmarked) [Compound 74] strictly below 50%?
y

Quick check: does O=C1CC[C@H](N2C(=O)c3ccc(N4CC(C(=O)N5CCN(CCC6CCN(c7ccc(Nc8ncnc9c8ncn9[C@H]8C[C@@H](NC(=O)Cc9ccccc9)C8)cc7)CC6)CC5)C4)cc3C2=O)C(=O)N1 [Compound 362] have Enzyme degradation CDK2 (% remaining) @ 0.1 μM under 50%?
n

Hello, is Enzyme degradation CDK2 (% remaining) @ 0.1 μM of the following molecule strictly smaller than 50%? Cc1cccc(C(=O)N[C@H]2C[C@@H](n3cnc4c(NCCC5CCN(CC6CCN(C(=O)COc7ccc8c(c7)C(=O)N([C@H]7CCC(=O)NC7=O)C8=O)CC6)CC5)ncnc43)C2)n1 [Compound 124]
y

Quick check: does O=C1CC[C@H](N2C(=O)c3cccc(OCC(=O)N4CCC(CC(=O)N5CCN(c6ccc(Nc7ncnc8c7ncn8C7CC(NC(=O)Cc8ccccc8)C7)cc6)CC5)CC4)c3C2=O)C(=O)N1 (some centres unmarked) [Compound 212] have Enzyme degradation CDK2 (% remaining) @ 0.1 μM under 50%?
y

A record lists Cc1cccc(C(=O)NC2CC(n3cnc4c(NCCC5CCN(CC6CCN(c7ccc8c(c7)C(=O)N([C@H]7CCC(=O)NC7=O)C8=O)CC6)CC5)ncnc43)C2)n1 (some centres unmarked) [Compound 308] . Is its Enzyme degradation CDK2 (% remaining) @ 0.1 μM below 50%?
y

Decide: Enzyme degradation CDK2 (% remaining) @ 0.1 μM of O=C1CCN(c2coc3cc(C(=O)N4CCC(CC(=O)N5CCN(c6ccc(Nc7ncnc8c7ncn8[C@H]7C[C@@H](NC(=O)Cc8ccccc8)C7)cc6)CC5)CC4)ccc23)C(=O)N1 [Compound 195] strictly below 50%?
n

# TODO verify Enzyme degradation CDK2 (% remaining) @ 0.1 μM < 50% strictly for this molecule: O=C1CC[C@@H](c2ccc(OCC(=O)N3CCC4(CC(N5CCN(c6ccc(Nc7ncnc8c7ncn8C7CC(NC(=O)Cc8ccccc8)C7)cc6)CC5)C4)C3)cc2)C(=O)N1 (some centres unmarked) [Compound 268]
n

Dear reviewer, please state whether N#Cc1cccc(C(=O)NC2CC(n3cnc4c(Nc5ccc(N6CCN(CC7CCN(C(=O)C8CN(c9ccc%10c(c9)C(=O)N([C@H]9CCC(=O)NC9=O)C%10=O)C8)CC7)CC6)cc5)ncnc43)C2)n1 (some centres unmarked) [Compound 454] has Enzyme degradation CDK2 (% remaining) @ 0.1 μM strictly beneath 50%.
y

Would you kindly verify if Enzyme degradation CDK2 (% remaining) @ 0.1 μM of Cc1cccc(C(=O)N[C@H]2C[C@@H](n3cnc4c(NC5CCN(C(=O)CC6CCN(C(=O)COc7cccc8c7C(=O)N([C@H]7CCC(=O)NC7=O)C8=O)CC6)CC5)ncnc43)C2)n1 [Compound 50] is strictly less than 50%?
n

Determine whether this molecule shows Enzyme degradation CDK2 (% remaining) @ 0.1 μM lower than 50% (ties excluded): O=C1CC[C@H](n2nnc3ccc(N4CCC(N5CCN(c6ccc(Nc7ncnc8c7ncn8[C@H]7C[C@@H](NC(=O)Cc8ccccc8)C7)cc6)CC5)CC4)cc3c2=O)C(=O)N1 [Compound 334]
n

I'd appreciate it if you could check whether Cc1cccc(C(=O)NC2CC(n3cnc4c(NC5CCN(CCOC6CCN(C(=O)CNc7cccc8c7C(=O)N([C@H]7CCC(=O)NC7=O)C8=O)CC6)CC5)ncnc43)C2)n1 (some centres unmarked) [Compound 46] has Enzyme degradation CDK2 (% remaining) @ 0.1 μM smaller than 50%.
n

I'd appreciate it if you could check whether O=C1CC[C@H](N2C(=O)c3ccc(OCC(=O)N4CCC5(CC4)CC(N4CCN(c6ccc(Nc7ncnc8c7ncn8[C@H]7C[C@@H](NC(=O)Cc8ccccc8)C7)cc6)CC4)C5)cc3C2=O)C(=O)N1 [Compound 208] has Enzyme degradation CDK2 (% remaining) @ 0.1 μM smaller than 50%.
n

Consider Cc1cccc(C(=O)NC2CC(n3cnc4c(Nc5ccc(N6CCN(CCC7CCN(c8ccc9c(c8)C(=O)N([C@H]8CCC(=O)NC8=O)C9=O)CC7)CC6)cc5)ncnc43)C2)n1 (some centres unmarked) [Compound 380] . Does its Enzyme degradation CDK2 (% remaining) @ 0.1 μM lie strictly below 50%?
y

Problem: For the molecule O=C1CC[C@H](N2C(=O)c3ccc(N4CCC(CN5CCC(CNc6ncnc7c6ncn7[C@H]6C[C@@H](NC(=O)c7c(Cl)cccc7Cl)C6)CC5)CC4)cc3C2=O)C(=O)N1 [Compound 173] , is Enzyme degradation CDK2 (% remaining) @ 0.1 μM under 50%?
y

Does the reported Enzyme degradation CDK2 (% remaining) @ 0.1 μM of COc1ccc(C(=O)N2CCC3(CC2)CC(N2CCC(c4ccc(Nc5ncnc6c5ncn6[C@H]5C[C@@H](NC(=O)Cc6ccccc6)C5)cc4)CC2)C3)cc1N1CCC(=O)NC1=O [Compound 286] stay below 50%?
y

Origin of measurements: patent US20260125382A1
